# System: eye (cornea, iris, conjunctiva)
# method: primary eye irritation (Draize) in rabbits
# Assay type: in vivo, white native male rabbits
# conditions: 2.4% soln; 1 hour; average of three rabbits
measurement-type: Primary irritation score, Conjunctiva
One number for each entry.

>>> recorded_result("CCC=CCCCCCCCCOCC(O)COC(=O)[C@@H]1CCC(=O)N1 (stereo partly drawn)")
3.3

For each of the compounds below, note its Primary irritation score, Conjunctiva.
1. CCCCCCCC/C=C\CCCCCCCC(=O)OCC(O)COC(=O)[C@@H]1CCC(=O)N1 (stereo partly drawn)
2. CCCCCCCCCCCC(=O)OCC(O)COC(=O)[C@@H]1CCC(=O)N1 (stereo partly drawn)
3. CCCCCCCC(=O)OCC(COC(=O)[C@@H]1CCC(=O)N1)OC(=O)CCCCCCC (stereo partly drawn)
4. CCCCCCCCCCCCOS(=O)(=O)[O-].[Na+] [Sodium Laurylsulfate, sodium laurylsulfate, reference compound]

Reply:
1: 2.0; 2: 3.3; 3: 3.3; 4: 13.3

Task item: Please give the documented Primary irritation score, Conjunctiva of CCCCCCCCC1(CCCCCCCC)OCC(COC(=O)C2CCC(=O)N2)O1 (stereo not drawn)
Reply: 2.0

###

# Test system: carrageenan edema
# method: carrageenan edema inhibiting effect of betamethasone valerate ointments
# Type: in vivo, rat
# conditions: 6 hrs; Table 5, betamethasone valerate ointment with penetration enhancer
measurement-type: Percentage inhibition vs. control (%)
Numbers only, in %.

Reference set (3 entries):
>>> recorded_result("CCCCCCCC=CCCCCCCCCOCC(COC(=O)[C@@H]1CCC(=O)N1)OCCCCCCCCC=CCCCCCCC (stereo partly shown)")
34.0
>>> recorded_result("CCCCCCCCCCCC(=O)OCC(O)COC(=O)[C@@H]1CCC(=O)N1 (stereo partly shown)")
35.5
>>> recorded_result("CC1(C)OCC(COC(=O)C2CCC(=O)N2)O1 (stereo not shown)")
36.1

For each of the compounds below, note its Percentage inhibition vs. control.
1. CCCCCCCCCCCCCCCCCCOCC(COC(=O)[C@@H]1CCC(=O)N1)OCCCCCCCCCCCCCCCCCC (stereo partly shown)
2. CCCCCCCCC1(CCCCCCCC)OCC(COC(=O)C2CCC(=O)N2)O1 (stereo not shown)
3. CCCCCCCCCCC=CCCCCCCCCCC(=O)OCC(O)COC(=O)[C@@H]1CCC(=O)N1 (stereo partly shown)
4. CCCCCCCC(=O)OCC(O)COC(=O)[C@@H]1CCC(=O)N1 (stereo partly shown)
5. CCCCCCOCC(O)COC(=O)[C@@H]1CCC(=O)N1 (stereo partly shown)
6. CCCCCCCCOCC(COC(=O)[C@@H]1CCC(=O)N1)OCCCCCCCC (stereo partly shown)
7. CCCCCCCCCCCCOCC(O)COC(=O)[C@@H]1CCC(=O)N1 (stereo partly shown)

Reply:
1. 36.6
2. 35.5
3. 30.8
4. 29.9
5. 37.0
6. 38.3
7. 36.7

For each of the compounds below, note its Percentage inhibition vs. control.
1. CCC=CC(=O)OCC(O)COC(=O)[C@@H]1CCC(=O)N1 (stereo partly shown)
2. CCCCC(=O)OCC(O)COC(=O)[C@@H]1CCC(=O)N1 (stereo partly shown)
3. CCC=CCCCCCCCCOCC(O)COC(=O)[C@@H]1CCC(=O)N1 (stereo partly shown)
4. CCCCC(=O)OCC(COC(=O)[C@@H]1CCC(=O)N1)OC(=O)CCCC (stereo partly shown)

Reply:
1: 35.5; 2: 34.3; 3: 34.2; 4: 36.1

For each of the compounds below, note its Percentage inhibition vs. control.
1. CCCCCCCC/C=C\CCCCCCCC(=O)OCC(COC(=O)C1CCC(=O)N1)OC(=O)CCCCCCC/C=C\CCCCCCCC (stereo not shown)
2. CCCCCCCCCCCCCCCC1OCC(COC(=O)C2CCC(=O)N2)O1 (stereo not shown)

Reply:
1. 36.2
2. 29.8

For each of the compounds below, note its Percentage inhibition vs. control.
1. CCCCCCCCCCCCCCCCCCOCC(O)COC(=O)[C@@H]1CCC(=O)N1 (stereo partly shown)
2. CCCCCCCC(=O)OCC(COC(=O)[C@@H]1CCC(=O)N1)OC(=O)CCCCCCC (stereo partly shown)
3. CCCCCCCCCCCCCCCCCC(=O)OCC(O)COC(=O)[C@@H]1CCC(=O)N1 (stereo partly shown)

Reply:
33.0
34.2
33.4

The reported measurements were obtained from patent US4746675A.
